The reported measurements were obtained from PubChem BioAssay AID1963429.

- System: 126254-015-R-J1-PDC complex spheroid growth, % test/control
- assay overview: Anticancer human tumor 126254-015-R-J1-PDC patient-derived soft tissue sarcoma cell line growth inhibition [Asc]
- conditions: second compound 0.0316 µM; first compound 0.00316 µM; hits give low values
metric: viability, T/C (%)

{"molecule": "NC1CCC(NC2CC2c2ccccc2)CC1 (stereo not given) + CNC(C)C(=O)NC1CN(S(=O)(=O)c2cccc(S(=O)(=O)N3CCC4CCC(C(=O)NC(c5ccccc5)c5ccccc5)N4C(=O)C(NC(=O)C(C)NC)C3)c2)CCC2CCC(C(=O)NC(c3ccccc3)c3ccccc3)N2C1=O", "experimental target": "126254-015-R-J1-PDC complex spheroid growth, % test/control", "metric": "viability, T/C", "reported measurement": 77.5}
{"molecule": "COc1c(OCCCN2CCOCC2)ccc2c3n(c(=NC(=O)c4cnc(N)nc4)nc12)CCN3 + CNC(C)C(=O)NC1CN(S(=O)(=O)c2cccc(S(=O)(=O)N3CCC4CCC(C(=O)NC(c5ccccc5)c5ccccc5)N4C(=O)C(NC(=O)C(C)NC)C3)c2)CCC2CCC(C(=O)NC(c3ccccc3)c3ccccc3)N2C1=O", "experimental target": "126254-015-R-J1-PDC complex spheroid growth, % test/control", "metric": "viability, T/C", "reported measurement": 74.8}
{"molecule": "Cn1ncnc1[C@H]1c2n[nH]c(=O)c3cc(F)cc(c23)N[C@@H]1c1ccc(F)cc1 + CNC(C)C(=O)NC1CN(S(=O)(=O)c2cccc(S(=O)(=O)N3CCC4CCC(C(=O)NC(c5ccccc5)c5ccccc5)N4C(=O)C(NC(=O)C(C)NC)C3)c2)CCC2CCC(C(=O)NC(c3ccccc3)c3ccccc3)N2C1=O", "experimental target": "126254-015-R-J1-PDC complex spheroid growth, % test/control", "metric": "viability, T/C", "reported measurement": 71}
{"molecule": "CCN1CCN(Cc2ccc(Nc3ncc(F)c(-c4cc(F)c5nc(C)n(C(C)C)c5c4)n3)nc2)CC1 + CNC(C)C(=O)NC1CN(S(=O)(=O)c2cccc(S(=O)(=O)N3CCC4CCC(C(=O)NC(c5ccccc5)c5ccccc5)N4C(=O)C(NC(=O)C(C)NC)C3)c2)CCC2CCC(C(=O)NC(c3ccccc3)c3ccccc3)N2C1=O", "experimental target": "126254-015-R-J1-PDC complex spheroid growth, % test/control", "metric": "viability, T/C", "reported measurement": 71}
{"molecule": "O=C(c1ccc(F)c(F)c1Nc1ccc(I)cc1F)N1CC(O)([C@@H]2CCCCN2)C1 + CNC(C)C(=O)NC1CN(S(=O)(=O)c2cccc(S(=O)(=O)N3CCC4CCC(C(=O)NC(c5ccccc5)c5ccccc5)N4C(=O)C(NC(=O)C(C)NC)C3)c2)CCC2CCC(C(=O)NC(c3ccccc3)c3ccccc3)N2C1=O", "experimental target": "126254-015-R-J1-PDC complex spheroid growth, % test/control", "metric": "viability, T/C", "reported measurement": 84.2}

----------
- Test system: 126254-015-R-J1-PDC complex spheroid growth, % test/control
- assay overview: Anticancer human tumor 126254-015-R-J1-PDC cell line growth inhibition [Asc];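 note: spheroids exposed to compound for seven days; 100% = DMSO vehicle control wells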
- conditions: second compound 0.949 µM; first compound 0.316 µM; hits give low values

{"molecule": "C#Cc1c(F)ccc2cc(O)cc(-c3ncc4c(N5CC6CCC(C5)N6)nc(OCC56CCCN5CC(F)C6)nc4c3F)c12 (centres undefined) + CCN1C(C(=O)NC23CCC(C(=O)O)(CC2)CC3)C(c2cccc(Cl)c2F)C2(C(=O)Nc3cc(Cl)ccc32)C12CCCCC2", "experimental target": "126254-015-R-J1-PDC complex spheroid growth, % test/control", "viability, T/C (%)": 94.9}
{"molecule": "C=C(F)C(=O)N1CCN(c2nc(OCC3CCCN3C)nc3c2CCN(c2cccc4cccc(Cl)c24)C3)CC1CC#N (centres undefined) + CCN1C(C(=O)NC23CCC(C(=O)O)(CC2)CC3)C(c2cccc(Cl)c2F)C2(C(=O)Nc3cc(Cl)ccc32)C12CCCCC2", "experimental target": "126254-015-R-J1-PDC complex spheroid growth, % test/control", "viability, T/C (%)": 100}
{"molecule": "C=CC(=O)N1CCN(c2nc(=O)n(-c3c(C)ccnc3C(C)C)c3nc(-c4c(O)cccc4F)c(F)cc23)C(C)C1 (centres undefined) + CCN1C(C(=O)NC23CCC(C(=O)O)(CC2)CC3)C(c2cccc(Cl)c2F)C2(C(=O)Nc3cc(Cl)ccc32)C12CCCCC2", "experimental target": "126254-015-R-J1-PDC complex spheroid growth, % test/control", "viability, T/C (%)": 106}
{"molecule": "CCN1CCN(Cc2ccc(Nc3ncc(F)c(-c4cc(F)c5nc(C)n(C(C)C)c5c4)n3)nc2)CC1 + CCN1C(C(=O)NC23CCC(C(=O)O)(CC2)CC3)C(c2cccc(Cl)c2F)C2(C(=O)Nc3cc(Cl)ccc32)C12CCCCC2", "experimental target": "126254-015-R-J1-PDC complex spheroid growth, % test/control", "viability, T/C (%)": 122}
